EXPERIMENT_DESCRIPTION: Cytotoxicity against human IMR90 cells assessed as cell viability at 10 uM after 2 days by Alamar Blue assay relative to control
Type: cell-based
TEST_SETTINGS: IMR-90 cells, read-out: Activity
OBSERVED_PROPERTY: viability at 48 h, 10 µM

Worked cases, viability at 48 h, 10 µM given:
[[record]]
compound = "CON(CC(=O)Nc1ccc2c(c1O)C(=O)C1=C(O)[C@]3(O)C(=O)C(C(N)=O)=C(O)[C@@H](N(C)C)[C@@H]3[C@@H](O)[C@@H]1[C@H]2C)C1OC[C@H](O)[C@@H]1O (mixture of isomers)"
result = "99.3%"

[[record]]
compound = "CON(CC(=O)Nc1ccc2c(c1O)C(=O)C1=C(O)[C@]3(O)C(=O)C(C(N)=O)=C(O)[C@@H](N(C)C)[C@@H]3[C@@H](O)[C@@H]1[C@H]2C)C1O[C@H](CO)[C@@H](O)[C@H](OC(C)C(=O)O)[C@H]1NC(C)=O (mixture of isomers)"
result = "104%"

[[record]]
compound = "CON(CC(=O)Nc1ccc2c(c1O)C(=O)C1=C(O)[C@]3(O)C(=O)C(C(N)=O)=C(O)[C@@H](N(C)C)[C@@H]3[C@@H](O)[C@@H]1[C@H]2C)C1OC[C@@H](O)[C@@H](O)[C@@H]1O (mixture of isomers)"
result = "102%"


### Prompt Give recorded viability at 48 h, 10 µM. "CON(CC(=O)Nc1ccc2c(c1O)C(=O)C1=C(O)[C@]3(O)C(=O)C(C(N)=O)=C(O)[C@@H](N(C)C)[C@@H]3[C@@H](O)[C@@H]1[C@H]2C)[C@H]1CC[C@H](N(C)C)[C@@H](C)O1"
### Response 101%

### Prompt Give recorded viability at 48 h, 10 µM. C=CCOC(=O)N[C@H]1C(N(CC(=O)Nc2ccc3c(c2O)C(=O)C2=C(O)[C@]4(O)C(=O)C(C(N)=O)=C(O)[C@@H](N(C)C)[C@@H]4[C@@H](O)[C@@H]2[C@H]3C)OC)O[C@H](CO)[C@@H](O)[C@@H]1O (mixture of isomers)
### Response 97.6%
